test: Half life value was determined; assay type: ADME
measurement label: half-life (h)

Some solved entries appear below for comparison.
[
  {
    "compound": "CC(=O)[O-].CC(C)(NC(=O)[C@@H](N)Cc1ccc(OCc2ccccc2)cc1)C(=O)Nc1ccn(C2O[C@H](CO)[C@@H](O)[C@@H]2O)c(=O)n1.[Na+] (stereo partly specified)",
    "measurement label": "half-life",
    "measurement": 0.3
  },
  {
    "compound": "CC(C)(NC(=O)[C@@H](N)Cc1ccc(OCc2ccccc2)cc1)C(=O)Nc1ccn(C2O[C@H](CO)[C@@H](O)[C@@H]2O)c(=O)n1 (stereo partly specified)",
    "measurement label": "half-life",
    "measurement": 42
  }
]

1 = CC(=O)O.CC(C)(NC(=O)CO)C(=O)Nc1ccn(C2O[C@H](CO)[C@@H](O)[C@@H]2O)c(=O)n1 (stereo partly specified)
2 = CC(=O)O.CC(C)(NC(=O)[C@@H](N)Cc1ccc(OCc2ccccc2)cc1)C(=O)Nc1ccn(C2O[C@H](CO)[C@@H](O)[C@@H]2O)c(=O)n1 (stereo partly specified)
3 = CC(=O)[O-].CC(C)(NC(=O)CO)C(=O)Nc1ccn(C2O[C@H](CO)[C@@H](O)[C@@H]2O)c(=O)n1.[Na+] (stereo partly specified)
4 = CC(C)(NC(=O)CO)C(=O)Nc1ccn(C2O[C@H](CO)[C@@H](O)[C@@H]2O)c(=O)n1 (stereo partly specified)
Put the items in sequence by half-life, from largest down. Field: ranking. Enter the labels in the order requested.
1, 4, 2, 3
